In this section, each of the compounds is paired with its reported MES test (po) Peak Time.
- System: male ICR mice
- measurement.protocol: MES (maximal electroshock seizure) test, mice
- Assay type: in vivo, mouse

compound	unit.label	MES test (po) Peak Time
CC(OC(N)=O)C(O)c1ccccc1Cl (racemic)	h	2
CC[C@H](OC(N)=O)[C@@H](O)c1ccc(Cl)cc1Cl	h	1
C[C@H](OC(N)=O)[C@@H](O)c1ccccc1Cl	h	2
C[C@@H](OC(N)=O)[C@H](O)c1ccccc1Cl	h	0.25
CC(C)[C@H](OC(N)=O)[C@@H](O)c1ccccc1Cl	h	0.5
C[C@H](OC(N)=O)[C@@H](O)c1cccc(Cl)c1Cl	h	2
C[C@@H](OC(N)=O)[C@H](O)c1c(Cl)cccc1Cl	h	1
C[C@H](OC(N)=O)[C@H](O)c1ccccc1Cl	h	0.5
CC(C)[C@H](OC(N)=O)[C@@H](O)c1c(Cl)cccc1Cl	h	0.5
CC[C@H](OC(N)=O)[C@@H](O)c1ccccc1Cl	h	1
C[C@H](OC(N)=O)[C@@H](O)c1c(Cl)cccc1Cl	h	0.25
